assay_info: Measurement of logP values by HPLC on reversed phase columns (EEC directive 79/831 Annex V.A8)
Format: physicochemical
condition_description: pH 2.7
measurement_kind: log p
Give only the figure.

> print(dat)
                                   compound  measurement.kind  readout.value
1  Clc1cccc(Nc2nccc(-c3ccnc(CN4CCSCC4)c3)n2)c1             log p           1.78
2  CC1CC(C)CN(Cc2cc(-c3ccnc(Nc4cccc(Cl)c4)n3)ccn2)C1 (centres unmarked)             log p            2.1
3  CCSCCN(C=O)Cc1cc(-c2ccnc(Nc3cccc(Cl)c3)n2)ccn1             log p           3.17
4  CC(=O)OCc1cc(-c2ccnc(Nc3cccc(Cl)c3)n2)ccn1             log p           3.02
5  COCC(C)C(=O)OC(C)c1cc(-c2ccnc(Nc3cccc(Cl)c3)n2)ccn1 (centres unmarked)             log p           3.83

Record COCC(=O)NCc1cc(-c2ccnc(Nc3cccc(Cl)c3)n2)ccn1 . Reported log p: 2.33

Record CCC(=O)OCc1cc(-c2ccnc(N(C(=O)CC)c3cccc(Cl)c3)n2)ccn1 . Reported log p: 3.11

----------
assay_info: Measurement of logP values by HPLC on reversed phase columns (EEC directive 79/831 Annex V.A8)
Assay type: physicochemical
condition_description: pH 2.7
I'd appreciate it if you could label each record using log p and these ranges: group 1 = under 3, group 2 = from 3 up to 4, group 3 = 4 and over

> print(dat)
                                   compound    group
1  O=C(NCc1cc(-c2ccnc(Nc3cccc(Cl)c3)n2)ccn1)C1CCCC1 [Example A3]  group 1

Which class is correct for the following compound? CCN(CC)Cc1cc(-c2ccnc(Nc3cccc(Cl)c3)n2)ccn1 [Compound A53] group 1

Which class is correct for the following compound? CCCC(=O)NC(C)c1cc(-c2ccnc(Nc3cccc(Cl)c3)n2)ccn1 (stereo not drawn) [Compound A90] group 1

Which class is correct for the following compound? C=C(C)C(=O)OCc1cc(-c2ccnc(Nc3cccc(Cl)c3)n2)ccn1 [Compound A87] group 2

Which class is correct for the following compound? CN(Cc1cc(-c2ccnc(Nc3cccc(Cl)c3)n2)ccn1)C1CCCC1 [Compound A51] group 1

----------
assay_info: Measurement of logP values by HPLC on reversed phase columns (EEC directive 79/831 Annex V.A8)
Type: physicochemical
condition_description: HPLC on reversed phase columns; usually LC-MS at pH 2.7 with 0.1% formic acid in water and acetonitrile, linear gradient 10% to 95% acetonitrile
measurement_kind: log p
Give only the figure.

> print(dat)
                                   molecule  readout.value
1  CC1(C)CCCN(Cc2cc(-c3ccnc(Nc4cccc(Cl)c4)n3)ccn2)C1 [Compound A45]            2.1
2  CCOC(=O)C1CCCN(Cc2cc(-c3ccnc(Nc4cccc(Cl)c4)n3)ccn2)C1 (stereo not drawn) [Example A57]           1.98
3  CCCCN(C)Cc1cc(-c2ccnc(Nc3cccc(Cl)c3)n2)ccn1 [Compound A38]           1.97
4  CN(Cc1cc(-c2ccnc(Nc3cccc(Cl)c3)n2)ccn1)CC1OCCO1 [Compound A44]           1.79
5  CN(C)CCN(C)Cc1cc(-c2ccnc(Nc3cccc(Cl)c3)n2)ccn1 [Compound A58]           1.44

Please turn your attention to the following entry.
Record C#CCN(C)Cc1cc(-c2ccnc(Nc3cccc(Cl)c3)n2)ccn1 [Example A39] . Reported log p: 1.75

----------
assay_info: Measurement of logP values by HPLC on reversed phase columns (EEC directive 79/831 Annex V.A8)
Format: physicochemical
condition_description: pH 2.7
measurement_kind: log p
Give only the figure.

Reference set, count: 4
> print(dat)
                                   molecule  readout.value
1  CN(C)CCSCc1cc(-c2ccnc(Nc3cccc(Cl)c3)n2)ccn1           1.75
2  CCC(C)CSCc1cc(-c2ccnc(Nc3cccc(Cl)c3)n2)ccn1 (stereo not shown)              5
3  C#CCCCC(=O)OCc1cc(-c2ccnc(Nc3cccc(Cl)c3)n2)ccn1           3.73
4  COCC1CCCN1Cc1cc(-c2ccnc(Nc3cccc(Cl)c3)n2)ccn1 (stereo not shown)           1.82

Record O=C(OCc1cc(-c2ccnc(N(C(=O)C3CCCC3)c3cccc(Cl)c3)n2)ccn1)C1CCCC1 . Reported log p: 4.86

Record CN(CCC#N)Cc1cc(-c2ccnc(Nc3cccc(Cl)c3)n2)ccn1 . Reported log p: 1.74

Record CCOCCNCc1cc(-c2ccnc(Nc3cccc(Cl)c3)n2)ccn1 . Reported log p: 1.84

Record CC(C)CC(=O)OCc1cc(-c2ccnc(Nc3cccc(Cl)c3)n2)ccn1 . Reported log p: 4.26

Record O=C(NCc1cc(-c2ccnc(Nc3cccc(Cl)c3)n2)ccn1)C1CCC1 . Reported log p: 2.69

Record CCCCC(=O)OCc1cc(-c2ccnc(Nc3cccc(Cl)c3)n2)ccn1 . Reported log p: 4.29

Record CC(=O)NCc1cc(-c2ccnc(Nc3cccc(Cl)c3)n2)ccn1 . Reported log p: 2.03

Record CC(c1cc(-c2ccnc(N(C(=O)C3CC3)c3cccc(Cl)c3)n2)ccn1)N(C(=O)C1CC1)C(=O)C1CC1 (stereo not shown) . Reported log p: 3.71

Record CC(C)(C)CCSCc1cc(-c2ccnc(Nc3cccc(Cl)c3)n2)ccn1 . Reported log p: 5.34

Record C=COC(=O)NCc1cc(-c2ncnc(Nc3cccc(Cl)c3)n2)ccn1 . Reported log p: 2.84

Record CC(C)(C)C(=O)NCc1cc(-c2ccnc(Nc3cccc(Cl)c3)n2)ccn1 . Reported log p: 2.88

Record C=C(C)CC(=O)OCc1cc(-c2ccnc(Nc3cccc(Cl)c3)n2)ccn1 . Reported log p: 3.92

Record COCCC(=O)OCc1cc(-c2ccnc(Nc3cccc(Cl)c3)n2)ccn1 . Reported log p: 3.13

Record CC(C)(C)OC(=O)NCc1cc(-c2ncnc(Nc3cccc(Cl)c3)n2)ccn1 . Reported log p: 3.1

Record CCN(C)Cc1cc(-c2ccnc(Nc3cccc(Cl)c3)n2)ccn1 . Reported log p: 1.66

Record CN(Cc1cc(-c2ccnc(Nc3cccc(Cl)c3)n2)ccn1)C(C)(C)C . Reported log p: 1.84

Record CC(C)=CC(=O)NCc1cc(-c2ccnc(Nc3cccc(Cl)c3)n2)ccn1 . Reported log p: 2.75

Record CC(C)(C)C(=O)OCc1cc(-c2ccnc(Nc3cccc(Cl)c3)n2)ccn1 . Reported log p: 4.31

----------
assay_info: Measurement of logP values by HPLC on reversed phase columns (EEC directive 79/831 Annex V.A8)
Format: physicochemical
condition_description: pH 2.7
Assign T whenever log p does not fall below 4; assign F whenever it does.

> print(dat)
                                   compound  group
1  CCCN(C)Cc1cc(-c2ccnc(Nc3cccc(Cl)c3)n2)ccn1      F

Could you verify whether the entry Clc1cccc(Nc2nccc(-c3ccnc(CSCc4ccccc4)c3)n2)c1 shows log p of no less than 4? T

Could you verify whether the entry C=C(C)C(=O)NCc1cc(-c2ccnc(Nc3cccc(Cl)c3)n2)ccn1 shows log p of no less than 4? F

Could you verify whether the entry CC(C)C(=O)OCc1cc(-c2ccnc(N(C(=O)C(C)C)c3cccc(Cl)c3)n2)ccn1 shows log p of no less than 4? F

Could you verify whether the entry N#CCc1cc(-c2ccnc(Nc3cccc(Cl)c3)n2)ccn1 shows log p of no less than 4? F

Could you verify whether the entry COCC(=O)NC(C)c1cc(-c2ccnc(Nc3cccc(Cl)c3)n2)ccn1 (stereo not shown) shows log p of no less than 4? F

Could you verify whether the entry CCC(=O)OCc1cc(-c2ccnc(Nc3cccc(Cl)c3)n2)ccn1 shows log p of no less than 4? F

Could you verify whether the entry CC(NC(=O)C1CC1)c1cc(-c2ccnc(Nc3cccc(Cl)c3)n2)ccn1 (stereo not shown) shows log p of no less than 4? F

Could you verify whether the entry CC(C)(C)C(=O)OCc1cc(-c2ccnc(N(C(=O)C(C)(C)C)c3cccc(Cl)c3)n2)ccn1 shows log p of no less than 4? T

Could you verify whether the entry C=CCSCc1cc(-c2ccnc(Nc3cccc(Cl)c3)n2)ccn1 shows log p of no less than 4? F

Could you verify whether the entry CCCCC(=O)OCc1cc(-c2ccnc(N(C(=O)CCCC)c3cccc(Cl)c3)n2)ccn1 shows log p of no less than 4? T

----------
Reported values of log p for individual entries
assay_info: Measurement of logP values by HPLC on reversed phase columns (EEC directive 79/831 Annex V.A8)
Assay type: physicochemical
condition_description: pH 2.7
Give only the figure.

Reference set, count: 5
> print(dat)
                                   compound  measurement.kind  readout.value
1  N#CCCCCSCc1cc(-c2ccnc(Nc3cccc(Cl)c3)n2)ccn1 [Compound A76]             log p           3.35
2  CC(C)=CC(=O)OCc1cc(-c2ccnc(Nc3cccc(Cl)c3)n2)ccn1 [Compound A89]             log p           4.01
3  CC(C)CSCc1cc(-c2ccnc(Nc3cccc(Cl)c3)n2)ccn1 [Compound A84]             log p           4.54
4  CCCCCSCc1cc(-c2ccnc(Nc3cccc(Cl)c3)n2)ccn1 [Example A74]             log p           5.08
5  O=C(OCc1cc(-c2ccnc(Nc3cccc(Cl)c3)n2)ccn1)C1CCCC1 [Compound A36]             log p           4.41

Please turn your attention to the following entry.
Record CC(C)N(C)Cc1cc(-c2ccnc(Nc3cccc(Cl)c3)n2)ccn1 [Example A42] . Reported log p: 1.79
